Can you tell me max response for the items I'm about to list?
- experiment summary: Cycloheximide Counterscreen for Small Molecule Inhibitors of Shiga Toxin; note: read at 38.3 µM for the half of the compounds with a filed dose; 0% is about no effect
- assay conditions: cell reporter, cycloheximide protein synthesis inhibition counterscreen; active compounds read high
In all, about 300,000 compounds went through this assay and about 37,000 (12%) were called active. The sample as a whole holds a higher share of actives than the screen did.

List the reported max response of each compound below.
1. COc1ccc(/C=C(/CC(=O)Nc2ccc(C)cc2)c2nc3ccccc3s2)cc1
2. COc1ccc(-c2csc(Cc3nc(O)cs3)n2)cc1
3. COc1ccc(NC(=O)CSc2nc3ccccc3c(=O)n2C)cc1

A.
1. 21.2% (active)
2. 37.4% (active)
3. -4.03% (inactive)
